Form field: IC50 (one value per entry).
Target: TRPC5 (Homo sapiens, UniProt Q9UL62)
Construct: expressed in transfected cells; host or cells: HEK 293
Sequence (Q9UL62 whole entry): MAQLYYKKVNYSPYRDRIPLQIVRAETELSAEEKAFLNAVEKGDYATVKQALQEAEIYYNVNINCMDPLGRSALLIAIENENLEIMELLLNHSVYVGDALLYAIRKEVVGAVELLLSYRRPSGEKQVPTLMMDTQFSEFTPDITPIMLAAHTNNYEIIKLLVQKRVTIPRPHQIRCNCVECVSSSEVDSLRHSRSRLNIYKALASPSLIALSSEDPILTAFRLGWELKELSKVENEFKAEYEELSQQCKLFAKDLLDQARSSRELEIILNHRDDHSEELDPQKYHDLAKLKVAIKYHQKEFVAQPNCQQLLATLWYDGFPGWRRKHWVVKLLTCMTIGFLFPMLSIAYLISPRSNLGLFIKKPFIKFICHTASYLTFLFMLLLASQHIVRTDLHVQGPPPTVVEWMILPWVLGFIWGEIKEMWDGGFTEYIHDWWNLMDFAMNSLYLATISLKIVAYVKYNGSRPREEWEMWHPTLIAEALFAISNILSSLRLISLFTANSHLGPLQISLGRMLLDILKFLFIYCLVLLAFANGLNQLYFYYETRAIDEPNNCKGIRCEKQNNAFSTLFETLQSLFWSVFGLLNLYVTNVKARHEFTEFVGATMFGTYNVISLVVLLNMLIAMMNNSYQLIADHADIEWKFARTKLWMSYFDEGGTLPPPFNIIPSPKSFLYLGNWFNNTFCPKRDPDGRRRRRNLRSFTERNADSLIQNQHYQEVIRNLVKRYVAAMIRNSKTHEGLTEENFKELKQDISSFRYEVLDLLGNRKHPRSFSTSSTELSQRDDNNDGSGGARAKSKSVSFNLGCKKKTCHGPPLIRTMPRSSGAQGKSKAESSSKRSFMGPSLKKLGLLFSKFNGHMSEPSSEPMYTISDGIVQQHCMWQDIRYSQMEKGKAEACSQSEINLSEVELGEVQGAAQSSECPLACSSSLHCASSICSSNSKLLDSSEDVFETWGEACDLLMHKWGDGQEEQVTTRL
Assay: TRPC5 fluorescence assay, membrane potential dye, flexstation (FLEX)
Type: cell-based
Conditions: Table 6; HEK293 cells overexpressing TRPC5
Description: HEK 293 cells expressing human TRPC5 cells were trypsinised, counted and seeded in black, clear-bottomed 96-well plates at a density of 50,000 cells per well and incubated overnight. Next day, the cells were loaded with membrane potential dye. […] The plates were then placed in the flexstation and fluorescence monitored every 1.52 seconds. After 20 seconds, 10 μL of the appropriate standard agonist was added and the fluorescence monitored for 2 minutes at ex/emm: 530 nm/565 nm.

// worked examples, IC50 included
compound	IC50
O=c1[nH]ncc(N2CCc3nn(-c4ccccc4C(F)(F)F)cc3C2)c1Cl	1e-05 to 1 µM
O=c1[nH]ncc(N2CCc3c(ncn3Cc3ccccc3)C2)c1Cl [drawing 880]	1e-05 to 1 µM

Briefly, IC50 measured for O=c1[nH]ncc(N2CCc3c(ncn3Cc3ccccc3C(F)(F)F)C2)c1Cl [drawing 850] : 1e-05 to 1 µM

Briefly, IC50 measured for N#Cc1c(N2CCc3c(nnn3Cc3ccccc3C(F)F)C2)cn[nH]c1=O : 10 to 500 µM

Briefly, IC50 measured for O=c1[nH]ncc(N2CCc3c(cnn3Cc3cccnc3CC(F)(F)F)C2)c1Cl : 1 to 5 µM
